biological target: T1, PSMA Fab; experiment: clonal phage ELISA on biotinylated PSMA Fab captured on neutravidin, anti-M13 HRP detection;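 further: crude clonal phage supernatants added to wells pretreated with PSMA antigen in blocking buffer or with blocking buffer only, then briefly incubated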
T1 construct: also called Anti-PSMA Fab; 006 PSMA Fab
Where no end group is shown, it is not given here.
Measured Attribute: Phage binding ELISA signal, Anti-PSMA Fab

Prompt: Which measured Phage binding ELISA signal, Anti-PSMA Fab value corresponds to EVKFCKPAWMCTGF (cysteine pairing not given here; also: fused to phage pIII, fusion site not given here) [Phage-3170] ?
Response: 2.02
